Tested on: THRa:RXRa (NR concentration 90 nM, RXRa partner concentration 90 nM)
Assay: PBM binding z-score (relative to random genomic background probes); higher = stronger binding; sequences stand for … in GC…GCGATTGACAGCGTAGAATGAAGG
Would you please tag the item criterion met when its PBM binding z-score is 0.3 or above, and criterion not met when it is below?

Completed entries (count: 2):
1) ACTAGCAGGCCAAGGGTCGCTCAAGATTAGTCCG | criterion met
2) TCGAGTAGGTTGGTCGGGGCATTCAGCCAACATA | criterion met

Is the recorded value of PBM binding z-score equal to or greater than 0.3 for this sequence? CCTACTGGGCCATTCAGCGGTCATTGATCATATG
criterion not met

PBM binding z-score >= 0.3 for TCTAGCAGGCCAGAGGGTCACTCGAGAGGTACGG ?
criterion met

// inclusive: PBM binding z-score at least 0.3? input: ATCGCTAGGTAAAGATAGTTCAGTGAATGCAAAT
criterion not met
